# Test system: RAW-Dual (murine macrophage reporter line)
# procedure_text: NF-kB reporter (SEAP) activity fold change vs agonist alone; higher = enhanced NF-kB activity
# measurement_context: modulator concentration 10 µM; agonist: MPLA […]
attribute_measured: NF-kB reporter
Could you keep your reply to the number by itself?

molecule	NF-kB reporter
CN1CCN2c3ccccc3Cc3ccccc3C2C1.Cl (stereo not drawn)	0.835
CCOC(=O)C1=C(C)NC(C)=C(C(=O)OCC)C1c1ccco1	1.14

Moving on to the next molecule.
In: Name the reported NF-kB reporter value associated with the molecule CC(=NOCON=C(C)c1ccc(Cl)c(Cl)c1)c1ccc(Cl)c(Cl)c1
Out: 0.936

----------
Reported IRF reporter is given for each of the following compounds.
# Test system: RAW-Dual (murine macrophage reporter line)
# procedure_text: IRF reporter (Lucia luciferase) activity fold change vs agonist alone; higher = enhanced IRF activity
# measurement_context: modulator concentration 10 µM; agonist: LPS 0.1 ug/mL

Use the examples below as a reference point.
compound	IRF reporter
CCN(CC)C(=O)N1CCN(C)CC1.O=C(O)CC(O)(CC(=O)O)C(=O)O	1.23
O=C(CSc1ccc2ccccc2n1)NC1=NCCS1	1.2
CC(=O)Oc1cc2c(s1)CCN(C(C(=O)C1CC1)c1ccccc1F)C2 (centres undefined)	1.28
CC(C)(Oc1ccc(Cl)cc1)C(=O)Nc1cnoc1	1.03
O=C(CCn1c(=O)oc2ccccc21)Nc1ccccc1	1.16

// switching to the query compound
In: Any idea what IRF reporter was measured for CNCCC=C1c2ccccc2CCc2ccccc21.Cl ?
Out: 1.11

----------
# Tested on: RAW-Dual (murine macrophage reporter line)
# procedure_text: IRF reporter (Lucia luciferase) activity fold change vs agonist alone; higher = enhanced IRF activity
# measurement_context: modulator concentration 10 µM; agonist: 3'3'-cGAMP 10 ug/mL
Give TRUE when the value for IRF reporter is at least 0.8. Give FALSE when it is less.

compound	label_value
NC(=O)c1ccc(N2CCOCC2)c([N+](=O)[O-])c1	TRUE
COc1ccc(-n2cnc3cc(NC(C)=O)ccc32)cc1	TRUE
CC(=O)N[C@@H](CS)C(=O)O	TRUE
Cc1cc(C)n2nc(C(=O)NN=Cc3ccc(N(C)C)cc3)nc2n1	TRUE

In: Would you say CC(=NOCON=C(C)c1ccc(F)cc1F)c1ccc(F)cc1F shows IRF reporter at minimum 0.8?
Out: TRUE

In: Now the compound O=C1C(CCS(=O)c2ccccc2)C(=O)N(c2ccccc2)N1c1ccccc1 (stereo unspecified)
Out: TRUE

In: Let us now turn to COc1ccc(S(=O)(=O)NCc2ccnc(-c3ccncc3)c2)cc1Cl
Out: FALSE

In: Try the compound O=C(CCCn1c(=O)[nH]c2ccc(Br)cc2c1=O)NCC1CCCO1 (stereo unspecified)
Out: TRUE

In: Same question for CC(=O)Nc1ccc(S(=O)(=O)N2CCCc3ccccc32)cc1 please.
Out: TRUE

In: Queued: O=C1CCCc2nn(-c3ccccc3)nc21
Out: TRUE

In: Okay, and CSCCC(NC(C)=O)C(=O)N1CCc2nc3ccc(Cl)cn3c(=O)c2C1 (stereo unspecified) ?
Out: TRUE

In: Also need CC(C)(C)C(O)/C=C/c1ccc2c(c1)OCO2 (stereo unspecified) , thanks.
Out: FALSE

In: Repeat for the following compound: O=C(Nc1cc(C(F)(F)F)cc(C(F)(F)F)c1)c1cccc(Br)c1
Out: TRUE

In: Repeat with CC(C)(O)CNc1nc(Nc2ccnc(C(F)(F)F)c2)nc(-c2cccc(C(F)(F)F)n2)n1
Out: TRUE

In: Another compound to check: Cn1c(=O)c2c(ncn2CC2OCCO2)n(C)c1=O
Out: TRUE

In: # repeat for CC(NC(=O)C1CCN(S(=O)(=O)N2CCCC2)CC1)c1ccc(F)cc1 (stereo unspecified)
Out: TRUE

In: Follow-up entry: Cc1ccn2c(-c3csc(NCc4ccccc4)n3)c(C)nc2c1
Out: FALSE

In: Same lookup for C[C@@H](Oc1cc(-c2cnn(C3CCNCC3)c2)cnc1N)c1c(Cl)ccc(F)c1Cl , please.
Out: FALSE
